Assay: Hematology assays in cynomolgus monkeys (Example 46)
Format: in vivo
Conditions: Day 31
Strand notation (5' to 3'): a small letter for the sugar, then the base; units joined by * are phosphorothioate-linked, units joined directly phosphodiester-linked; [ ] holds rarer units or linkages, { } end groups; capitals alone tell only the bases. e = 2'-O-(2-methoxyethyl) (MOE); [5mC] = 5-methylcytosine; d = 2'-deoxy (DNA)
property.measured: MCV (fL)
I only need the number, in fL, no unit after it.

Enquiry: Look at this substance and give its reported MCV. ISIS 445531: 5-8-5 or 6-8-6 MOE microwalk gapmer (Table 44) (antisense eG*eG*e[5mC]*eA*eT*dT*dG*dG*dT*dG*d[5mC]*dA*d[5mC]*eA*eG*eT*eT*eT)
Return: 75

Enquiry: Follow-up entry: ISIS 449707: 3-8-3, 4-8-4, 2-10-2, 3-10-3 or 4-10-4 MOE microwalk gapmer (Table 46) (antisense e[5mC]*eA*e[5mC]*eA*dG*dT*dT*dT*d[5mC]*dT*dG*dG*e[5mC]*eA*eG*eG)
Return: 74

Enquiry: Follow-up entry: ISIS 449711: 3-8-3, 4-8-4, 2-10-2, 3-10-3 or 4-10-4 MOE microwalk gapmer (Table 46) (antisense eA*e[5mC]*dA*dG*dT*dT*dT*d[5mC]*dT*dG*dG*d[5mC]*eA*eG)
Return: 73
